EXPERIMENTAL_SYSTEM: Serine/threonine-protein kinase tousled-like 2 (Homo sapiens)
pIC50: −log10 of the molar value.
MEASURED_METRIC: pIC50

Ask: GET /values?readout=pIC50&system=Serine/threonine-protein kinase tousled-like 2 (Homo sapiens)&item= CN1CCN(c2ccc(OC(F)(F)F)c(Nc3ncc4c(n3)-c3c(c(C(N)=O)nn3CCO)CC4)c2)CC1
Reply: < 5.00

###

PROTOCOL_SUMMARY: AUC (infinity) in overnight fasted CD1 nu/nu mouse at 10 mg/kg, po
Assay type: ADME, organism-based
Parameters: time infinity, dose 10 mg/kg, route oral
SETUP_CONDITIONS: plasma
MEASURED_METRIC: AUC(0-inf)
Hi, when you answer, please include the unit after the number. Thanks!

Ask: Which AUC(0-inf) value belongs to CN1CCN(c2ccc(OC(F)(F)F)c(Nc3ncc4c(n3)-c3c(c(C(N)=O)nn3CCO)CC4)c2)CC1.Cl ?
Reply: 2.04 µM·h

###

EXPERIMENTAL_SYSTEM: Serine/threonine-protein kinase NIM1 (Homo sapiens, UniProt Q8IY84)
Sequence (Q8IY84 whole entry): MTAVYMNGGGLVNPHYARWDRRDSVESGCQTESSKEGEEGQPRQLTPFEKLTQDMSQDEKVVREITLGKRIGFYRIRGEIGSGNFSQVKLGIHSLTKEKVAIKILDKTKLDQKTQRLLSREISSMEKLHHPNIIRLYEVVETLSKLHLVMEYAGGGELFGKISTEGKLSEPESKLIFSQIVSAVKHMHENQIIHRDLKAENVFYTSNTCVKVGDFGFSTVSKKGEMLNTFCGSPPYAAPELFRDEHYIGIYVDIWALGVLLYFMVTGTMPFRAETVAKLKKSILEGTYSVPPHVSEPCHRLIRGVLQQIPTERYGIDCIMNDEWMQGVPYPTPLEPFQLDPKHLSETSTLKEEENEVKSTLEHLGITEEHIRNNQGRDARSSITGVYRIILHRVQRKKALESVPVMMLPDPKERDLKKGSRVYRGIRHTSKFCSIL
pIC50: −log10 of the molar value.
MEASURED_METRIC: pIC50

Ask: Which pIC50 value belongs to CN1CCN(c2ccc(OC(F)(F)F)c(Nc3ncc4c(n3)-c3c(c(C(N)=O)nn3CCO)CC4)c2)CC1 [ONVANSERTIB] ?
Reply: < 5.00

###

EXPERIMENTAL_SYSTEM: Serine/threonine-protein kinase PLK2 (Homo sapiens, UniProt Q9NYY3)
pIC50: −log10 of the molar value.
Exercise: state measured pIC50 for each of the compounds provided.

STRUCTURE_SMILES | pIC50
CN1CC=C(c2ccc(OC(F)(F)F)c(Nc3ncc4c(n3)-c3c(c(C(N)=O)nn3C)CC4)c2)CC1 | 5.65

Provide reported pIC50 for each item, in the same order as listed.
1. CN1CCC(c2ccc(OC(F)(F)F)c(Nc3ncc4c(n3)-c3c(c(C(N)=O)nn3C)CC4)c2)CC1
2. CCN(CC)CCN(C)c1ccc(OC(F)(F)F)c(Nc2ncc3c(n2)-c2c(c(C(N)=O)nn2C)CC3)c1
3. CN1CCN(c2ccc(OC(F)(F)F)c(Nc3ncc4c(n3)-c3c(c(C(N)=O)nn3CCCN)CC4)c2)CC1
4. CN(C)CCCn1nc(C(N)=O)c2c1-c1nc(Nc3cc(N4CCN(C)CC4)ccc3OC(F)(F)F)ncc1CC2
5. CN1CCN(c2ccc(OC(F)(F)F)c(Nc3ncc4c(n3)-c3c(c(C(N)=O)nn3C)CC4)c2)[C@H](CO)C1
6. CN1CCN(c2ccc(OC(F)(F)F)c(Nc3ncc4c(n3)-c3c(c(C(N)=O)nn3CCN)CC4)c2)CC1

Reply:
1: < 5.00; 2: < 5.00; 3: < 5.00; 4: < 5.00; 5: 5.83; 6: < 5.00

###

EXPERIMENTAL_SYSTEM: Ephrin type-A receptor 2 (Homo sapiens)
Sequence (P29317 whole entry): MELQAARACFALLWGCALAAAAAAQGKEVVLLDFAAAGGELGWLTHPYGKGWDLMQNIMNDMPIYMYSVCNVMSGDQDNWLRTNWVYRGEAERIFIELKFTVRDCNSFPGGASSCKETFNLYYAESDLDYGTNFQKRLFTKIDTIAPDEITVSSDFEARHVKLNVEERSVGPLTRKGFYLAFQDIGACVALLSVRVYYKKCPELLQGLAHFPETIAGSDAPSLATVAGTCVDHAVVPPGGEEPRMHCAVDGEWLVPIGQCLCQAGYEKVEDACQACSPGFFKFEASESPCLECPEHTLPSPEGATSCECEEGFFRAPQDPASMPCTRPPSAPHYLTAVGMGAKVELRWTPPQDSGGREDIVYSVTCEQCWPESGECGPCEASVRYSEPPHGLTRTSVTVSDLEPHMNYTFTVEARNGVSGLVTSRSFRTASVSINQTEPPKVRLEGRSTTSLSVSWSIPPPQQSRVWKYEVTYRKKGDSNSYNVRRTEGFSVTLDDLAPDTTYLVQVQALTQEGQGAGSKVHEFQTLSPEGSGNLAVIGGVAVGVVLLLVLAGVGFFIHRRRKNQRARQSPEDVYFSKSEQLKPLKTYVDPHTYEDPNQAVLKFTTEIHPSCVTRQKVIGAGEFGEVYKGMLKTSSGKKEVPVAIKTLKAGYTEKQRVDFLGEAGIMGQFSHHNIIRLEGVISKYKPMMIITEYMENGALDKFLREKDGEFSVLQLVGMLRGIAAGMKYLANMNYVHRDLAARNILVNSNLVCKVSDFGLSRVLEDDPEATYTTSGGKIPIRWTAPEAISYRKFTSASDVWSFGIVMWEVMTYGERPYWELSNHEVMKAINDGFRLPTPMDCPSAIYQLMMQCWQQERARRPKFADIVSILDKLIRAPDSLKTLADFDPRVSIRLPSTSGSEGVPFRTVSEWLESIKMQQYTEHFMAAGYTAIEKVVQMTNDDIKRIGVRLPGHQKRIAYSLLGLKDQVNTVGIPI
pIC50: −log10 of the molar value.
MEASURED_METRIC: pIC50

Ask: Which pIC50 value belongs to CN1CCN(c2ccc(OC(F)(F)F)c(Nc3ncc4c(n3)-c3c(c(C(N)=O)nn3CCO)CC4)c2)CC1 ?
Reply: < 5.00

###

PROTOCOL_SUMMARY: Half life in overnight fasted CD1 nu/nu mouse at 10 mg/kg, po
Type: ADME, organism-based
Parameters: dose 10 mg/kg, route oral
SETUP_CONDITIONS: in vivo
MEASURED_METRIC: half-life (min)
One number for each entry, in min.

Ask: Which half-life value belongs to CN1CCN(c2ccc(OC(F)(F)F)c(Nc3ncc4c(n3)-c3c(c(C(N)=O)nn3CCO)CC4)c2)CC1.Cl ?
Reply: 96

###

EXPERIMENTAL_SYSTEM: Fibroblast growth factor receptor 1 (Homo sapiens, UniProt P11362)
Sequence (P11362 whole entry): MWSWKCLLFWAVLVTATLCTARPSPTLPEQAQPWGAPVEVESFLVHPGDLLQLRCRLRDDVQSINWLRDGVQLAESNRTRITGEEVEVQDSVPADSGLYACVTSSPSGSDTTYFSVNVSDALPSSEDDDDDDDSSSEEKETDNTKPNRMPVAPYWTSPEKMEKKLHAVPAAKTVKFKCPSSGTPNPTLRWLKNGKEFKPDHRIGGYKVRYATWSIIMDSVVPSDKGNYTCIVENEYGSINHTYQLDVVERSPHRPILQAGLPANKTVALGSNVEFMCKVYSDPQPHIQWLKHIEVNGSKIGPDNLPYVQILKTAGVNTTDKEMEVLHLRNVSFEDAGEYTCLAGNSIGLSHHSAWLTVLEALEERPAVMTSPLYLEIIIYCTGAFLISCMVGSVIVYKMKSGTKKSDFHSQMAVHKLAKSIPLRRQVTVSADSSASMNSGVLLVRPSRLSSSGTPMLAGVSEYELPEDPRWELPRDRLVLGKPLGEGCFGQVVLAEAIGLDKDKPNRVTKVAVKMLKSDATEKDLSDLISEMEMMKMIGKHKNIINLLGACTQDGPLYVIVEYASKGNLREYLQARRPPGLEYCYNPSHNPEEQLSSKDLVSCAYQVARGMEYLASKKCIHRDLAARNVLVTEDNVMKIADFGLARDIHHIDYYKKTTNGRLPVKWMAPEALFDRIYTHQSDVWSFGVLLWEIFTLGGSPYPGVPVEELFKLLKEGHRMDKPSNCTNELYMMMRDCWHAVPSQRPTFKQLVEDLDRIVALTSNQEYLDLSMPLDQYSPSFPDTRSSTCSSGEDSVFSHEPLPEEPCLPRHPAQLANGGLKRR
MEASURED_METRIC: IC50

Ask: Which IC50 value belongs to CN1CCN(c2ccc(OC(F)(F)F)c(Nc3ncc4c(n3)-c3c(c(C(N)=O)nn3CCO)CC4)c2)CC1 [ONVANSERTIB] ?
Reply: > 10 µM

###

EXPERIMENTAL_SYSTEM: Mitotic checkpoint serine/threonine-protein kinase BUB1 (Homo sapiens)
pIC50: −log10 of the molar value.
MEASURED_METRIC: pIC50

Ask: Which pIC50 value belongs to CN1CCN(c2ccc(OC(F)(F)F)c(Nc3ncc4c(n3)-c3c(c(C(N)=O)nn3CCO)CC4)c2)CC1 [ONVANSERTIB] ?
Reply: < 5.00

###

EXPERIMENTAL_SYSTEM: Cyclin-dependent kinase 1/cyclin B1 (Homo sapiens, UniProt P06493)
PROTOCOL_SUMMARY: Inhibition of CDK1/CYCB assessed as [33P]gamma-ATP incorporation into substrate after 60 mins by gamma counting
MEASURED_METRIC: IC50

Ask: Which IC50 value belongs to CN1CCN(c2ccc(OC(F)(F)F)c(Nc3ncc4c(n3)-c3c(c(C(N)=O)nn3CCO)CC4)c2)CC1 ?
Reply: > 10 µM

###

EXPERIMENTAL_SYSTEM: Non-receptor tyrosine-protein kinase TYK2 (Homo sapiens, UniProt P29597)
pIC50: −log10 of the molar value.
MEASURED_METRIC: pIC50

Ask: Which pIC50 value belongs to CN1CCN(c2ccc(OC(F)(F)F)c(Nc3ncc4c(n3)-c3c(c(C(N)=O)nn3CCO)CC4)c2)CC1 [ONVANSERTIB] ?
Reply: < 5.00

###

EXPERIMENTAL_SYSTEM: Protein-tyrosine kinase 6 (Homo sapiens)
pIC50: −log10 of the molar value.
MEASURED_METRIC: pIC50

Ask: Which pIC50 value belongs to CN1CCN(c2ccc(OC(F)(F)F)c(Nc3ncc4c(n3)-c3c(c(C(N)=O)nn3CCO)CC4)c2)CC1 ?
Reply: < 5.00

###

PROTOCOL_SUMMARY: Volume of distribution at steady state in overnight fasted CD1 nu/nu mouse at 10 mg/kg, iv
Type: ADME, organism-based
Set-up: dose 10 mg/kg, route intravenous
SETUP_CONDITIONS: in vivo, read-out: Vdss
MEASURED_METRIC: Vd (L/kg)
Answers are plain numbers, in L/kg.

Ask: Which Vd value belongs to CN1CCN(c2ccc(OC(F)(F)F)c(Nc3ncc4c(n3)-c3c(c(C(N)=O)nn3CCO)CC4)c2)CC1.Cl ?
Reply: 1.71

###

EXPERIMENTAL_SYSTEM: Serine/threonine-protein kinase pim-2 (Homo sapiens)
MEASURED_METRIC: IC50

Ask: Which IC50 value belongs to CN1CCN(c2ccc(OC(F)(F)F)c(Nc3ncc4c(n3)-c3c(c(C(N)=O)nn3CCO)CC4)c2)CC1 ?
Reply: > 10 µM

###

EXPERIMENTAL_SYSTEM: Serine/threonine-protein kinase haspin (Homo sapiens)
pIC50: −log10 of the molar value.
MEASURED_METRIC: pIC50

Ask: Which pIC50 value belongs to CN1CCN(c2ccc(OC(F)(F)F)c(Nc3ncc4c(n3)-c3c(c(C(N)=O)nn3CCO)CC4)c2)CC1 [ONVANSERTIB] ?
Reply: < 5.00

###

EXPERIMENTAL_SYSTEM: Insulin receptor (Homo sapiens)
Sequence (P06213 28-758 limits assumed): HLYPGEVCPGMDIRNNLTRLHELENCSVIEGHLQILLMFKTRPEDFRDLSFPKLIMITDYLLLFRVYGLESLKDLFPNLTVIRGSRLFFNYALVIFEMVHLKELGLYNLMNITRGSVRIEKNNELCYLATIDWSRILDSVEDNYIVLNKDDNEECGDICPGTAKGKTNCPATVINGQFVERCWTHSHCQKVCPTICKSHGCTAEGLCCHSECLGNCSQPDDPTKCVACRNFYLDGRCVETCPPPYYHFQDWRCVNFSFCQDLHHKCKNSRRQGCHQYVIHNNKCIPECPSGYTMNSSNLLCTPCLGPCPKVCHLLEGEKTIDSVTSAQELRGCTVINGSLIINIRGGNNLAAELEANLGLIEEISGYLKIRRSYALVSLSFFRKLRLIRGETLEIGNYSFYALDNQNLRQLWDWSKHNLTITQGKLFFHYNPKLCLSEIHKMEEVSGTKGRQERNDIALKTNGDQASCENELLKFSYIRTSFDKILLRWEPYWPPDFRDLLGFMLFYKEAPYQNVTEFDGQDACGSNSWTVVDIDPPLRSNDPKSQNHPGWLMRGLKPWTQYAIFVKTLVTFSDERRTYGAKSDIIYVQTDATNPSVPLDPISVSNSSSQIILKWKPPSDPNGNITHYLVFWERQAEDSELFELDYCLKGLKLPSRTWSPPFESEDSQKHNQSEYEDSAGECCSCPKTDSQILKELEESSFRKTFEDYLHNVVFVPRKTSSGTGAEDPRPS
Sequence (P06213 763-1382 limits assumed): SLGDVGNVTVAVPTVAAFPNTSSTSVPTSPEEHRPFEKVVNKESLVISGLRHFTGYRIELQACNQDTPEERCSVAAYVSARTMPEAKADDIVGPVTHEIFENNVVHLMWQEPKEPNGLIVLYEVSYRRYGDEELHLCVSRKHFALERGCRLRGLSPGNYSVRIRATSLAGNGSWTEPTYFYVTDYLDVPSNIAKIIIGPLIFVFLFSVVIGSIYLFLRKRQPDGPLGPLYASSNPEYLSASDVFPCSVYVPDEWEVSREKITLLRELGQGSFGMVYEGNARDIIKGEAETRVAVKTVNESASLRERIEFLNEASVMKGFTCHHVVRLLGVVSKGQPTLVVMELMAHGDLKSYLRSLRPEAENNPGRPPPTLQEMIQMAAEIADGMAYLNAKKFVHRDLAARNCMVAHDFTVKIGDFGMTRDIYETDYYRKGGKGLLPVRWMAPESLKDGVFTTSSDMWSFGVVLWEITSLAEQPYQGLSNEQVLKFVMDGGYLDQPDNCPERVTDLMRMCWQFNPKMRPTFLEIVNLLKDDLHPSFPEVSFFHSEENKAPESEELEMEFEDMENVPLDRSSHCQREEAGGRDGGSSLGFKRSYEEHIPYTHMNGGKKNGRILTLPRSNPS
PROTOCOL_SUMMARY: Inhibition of IR assessed as [33P]gamma-ATP incorporation into substrate after 60 mins by gamma counting
pIC50: −log10 of the molar value.
MEASURED_METRIC: pIC50

Ask: Which pIC50 value belongs to CN1CCN(c2ccc(OC(F)(F)F)c(Nc3ncc4c(n3)-c3c(c(C(N)=O)nn3CCO)CC4)c2)CC1 [ONVANSERTIB] ?
Reply: < 5.00

###

PROTOCOL_SUMMARY: Oral bioavailability in overnight fasted CD1 nu/nu mouse at 10 mg/kg
Type: ADME, organism-based
SETUP_CONDITIONS: in vivo
MEASURED_METRIC: bioavailability (%)
Answers are plain numbers, in %.

Ask: Which bioavailability value belongs to CN1CCN(c2ccc(OC(F)(F)F)c(Nc3ncc4c(n3)-c3c(c(C(N)=O)nn3CCO)CC4)c2)CC1.Cl ?
Reply: 24

###

EXPERIMENTAL_SYSTEM: CDC7/DBF4 (Cell division cycle 7-related protein kinase/Activator of S phase kinase) (Homo sapiens)
Sequence (Q9UBU7 whole entry): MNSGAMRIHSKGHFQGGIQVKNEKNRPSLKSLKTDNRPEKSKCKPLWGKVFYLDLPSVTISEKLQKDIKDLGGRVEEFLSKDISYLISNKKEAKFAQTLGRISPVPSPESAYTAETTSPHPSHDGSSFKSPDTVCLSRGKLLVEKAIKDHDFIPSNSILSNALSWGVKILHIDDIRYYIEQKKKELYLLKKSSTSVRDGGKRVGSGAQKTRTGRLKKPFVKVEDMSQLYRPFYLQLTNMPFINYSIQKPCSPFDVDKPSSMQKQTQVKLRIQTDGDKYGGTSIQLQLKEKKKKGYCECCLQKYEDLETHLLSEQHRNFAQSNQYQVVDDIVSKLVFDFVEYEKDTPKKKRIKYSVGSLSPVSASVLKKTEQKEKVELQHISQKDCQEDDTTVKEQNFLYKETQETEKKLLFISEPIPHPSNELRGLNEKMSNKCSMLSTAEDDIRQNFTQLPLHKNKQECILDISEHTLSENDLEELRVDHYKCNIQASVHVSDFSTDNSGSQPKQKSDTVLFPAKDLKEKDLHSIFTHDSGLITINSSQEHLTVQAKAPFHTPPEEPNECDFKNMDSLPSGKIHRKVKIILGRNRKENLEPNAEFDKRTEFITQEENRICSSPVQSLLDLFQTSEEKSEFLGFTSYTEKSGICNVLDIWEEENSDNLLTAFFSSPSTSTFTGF
Sequence (O00311 whole entry): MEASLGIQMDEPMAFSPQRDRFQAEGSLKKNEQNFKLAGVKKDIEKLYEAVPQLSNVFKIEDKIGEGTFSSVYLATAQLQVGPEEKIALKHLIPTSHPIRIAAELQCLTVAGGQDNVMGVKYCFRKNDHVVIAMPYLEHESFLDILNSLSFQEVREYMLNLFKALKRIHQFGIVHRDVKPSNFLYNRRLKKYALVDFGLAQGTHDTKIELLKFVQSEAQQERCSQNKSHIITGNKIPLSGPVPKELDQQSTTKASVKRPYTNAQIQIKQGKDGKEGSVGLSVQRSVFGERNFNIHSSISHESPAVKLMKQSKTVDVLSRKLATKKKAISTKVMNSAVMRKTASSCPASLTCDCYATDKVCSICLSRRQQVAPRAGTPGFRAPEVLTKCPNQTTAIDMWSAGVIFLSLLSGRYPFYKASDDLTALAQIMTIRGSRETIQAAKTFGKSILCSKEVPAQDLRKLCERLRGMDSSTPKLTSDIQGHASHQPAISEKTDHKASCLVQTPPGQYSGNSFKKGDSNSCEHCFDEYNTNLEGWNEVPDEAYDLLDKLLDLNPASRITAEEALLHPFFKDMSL
PROTOCOL_SUMMARY: Inhibition of CDC7/DBF4 assessed as [33P]gamma-ATP incorporation into substrate after 60 mins by gamma counting
pIC50: −log10 of the molar value.
MEASURED_METRIC: pIC50

Ask: Which pIC50 value belongs to CN1CCN(c2ccc(OC(F)(F)F)c(Nc3ncc4c(n3)-c3c(c(C(N)=O)nn3CCO)CC4)c2)CC1 [ONVANSERTIB] ?
Reply: < 5.00

###

PROTOCOL_SUMMARY: Intrinsic clearance in human liver microsomes at 1 uM
Format: ADME, Microsome
Exercise: state measured CLint scaled at 1 µM for each of the compounds provided.
One number for each entry, in mL/min/kg.

COMPOUND | CLint scaled at 1 µM, mL/min/kg
CN1CCN(c2ccc(OC(F)(F)F)c(Nc3ncc4c(n3)-c3c(c(C(N)=O)nn3CCO)CC4)c2)CC1 [ONVANSERTIB] | 16.9
CN1CCC(c2ccc(OC(F)(F)F)c(Nc3ncc4c(n3)-c3c(c(C(N)=O)nn3C)CC4)c2)CC1 | 15.9

Ask: Which CLint scaled at 1 µM value belongs to CN1CC=C(c2ccc(OC(F)(F)F)c(Nc3ncc4c(n3)-c3c(c(C(N)=O)nn3C)CC4)c2)CC1 ?
Reply: 24.5

All figures here come from ChEMBL document CHEMBL1773059.
